Kindly state inhibition for each of the entries shown.
Biological target: Gag-Pol polyprotein (Human immunodeficiency virus type 1 group M subtype B (isolate HXB2))
Assay: RNase H inhibition, HIV 1 Gag Pol polyprotein, FRET biochemical assay, screening (AID 372)
Conditions: HIV-1 RT RNase H, FRET RNA/DNA substrate fluorescence; at 10 µM; active compounds read high
The whole screen tested about 100,000 compounds, of which about 770 (0.77%) were called active. The full list was thinned out, with actives kept by preference.
Numbers only, in %.

For orientation, consider the following solved cases.
COc1ccccc1C/C(N)=N/OC(=O)Cc1ccc(Cl)cc1
22
CCCOc1ccccc1C1C(C(=O)OCC2CCCO2)=C(C)NC2=C1C(=O)CCC2 (configuration not stated)
6
CCc1ccc(C=NC23CN4CN(CN(C4)C2)C3)s1
5
CSc1nc(-c2ccccc2)c(C#N)c(=O)n1C
15

Lab note: each compound below needs its inhibition filled in.
1. O=C(O)c1cccc(-c2ccc(/C=C3\SC(=S)N(c4ccc([N+](=O)[O-])cc4)C3=O)o2)c1
2. COc1ccc(N2C(=O)/C(=C/c3ccc(-c4ccc([N+](=O)[O-])cc4Cl)o3)SC2=S)cc1
3. Cc1nnc(N/N=C/c2ccc(C(=O)O)cc2)[nH]c1=O

12
18
10

The reported measurements were obtained from PubChem BioAssay AID372.
